As shown below, each of these compounds has a reported inhibition at 10 min, 10 µM value.
TESTED_SYSTEM: CYP3A (Homo sapiens, UniProt P08684+P20815+P24462+Q9HB55)
PROCEDURE_SUMMARY: Inhibition of CYP3A (unknown origin) at 10 uM using midazolam as substrate incubated for 10 mins in presence of NADPH by LC-MS/MS analysis relative to control
Format: ADME, protein assay
EXPERIMENTAL_CONTEXT: probe midazolam
Your answer is read as %, so omit the unit and give the number.

                                   compound           measured_attribute  observed_measurement
0  CCOC(=O)C1=C(CN2CCN(C(C(=O)O)c3cccc([N+](=O)[O-])c3)CC2)NC(c2nccs2)=NC1c1ccc(F)cc1Br (configuration not stated)  inhibition at 10 min, 10 µM                  17.1

Now consider the entry below.
Ask | For CYP3A (Homo sapiens, UniProt P08684+P20815+P24462+Q9HB55), give inhibition at 10 min, 10 µM of the listed compound: CCOC(=O)C1=C(CN2CCN(C(/C=C/c3ccccc3)C(=O)O)CC2)NC(c2nccs2)=NC1c1ccc(F)cc1Br (configuration not stated)
Reply | 44.6

Each recorded value in this set is attributed to ChEMBL document CHEMBL5329208.
